assayed.system: HLA-A*03:01
assay.comment: IEDB peptide-MHC binding, purified MHC/direct/fluorescence; filed as Kd, often an IC50 or EC50 that approximates it; bounds were set here for any values at or beyond the usual limits of such assays
condition: source organism: Yellow fever virus 17D
pKd: −log10 of the molar value.
experimental.endpoint: pKd

Value of pKd reported for the sequence "CRTAFKPVL" is ≤ 4.70

###

assayed.system: HLA-A*69:01
assay.comment: IEDB peptide-MHC binding, purified MHC/competitive/fluorescence; filed as Kd, often an IC50 or EC50 that approximates it; bounds were set here for any values at or beyond the usual limits of such assays
condition: source organism: Vibrio vulnificus YJ016
pKd: −log10 of the molar value.
experimental.endpoint: pKd

The recorded pKd for "HTSALSLGY" is ≤ 4.70
